Exercise: state measured Activity for each of the compounds provided.
Tested on: HeLa
Experimental Protocol: Induction of p21 promoter gene in human HeLa cells assessed as percent induction activity at 10 uM relative to SNDX-275
Assay type: functional

CN(C)C(C(=O)Nc1ccc(C(F)(F)F)cc1)c1ccc(/C=C/C(=O)Nc2ccccc2N)cc1 (stereo not drawn); 43%
Nc1ccccc1NC(=O)/C=C/c1ccc(C(NCCN2CCCCC2)C(=O)Nc2ccc(C(F)(F)F)cc2)cc1 (stereo not drawn); 77%

Activity reading for Nc1ccccc1NC(=O)/C=C/c1ccc(C(C(=O)Nc2ccc(C3CC3)cc2)N2CCCC2)cc1 (stereo not drawn) : 148%
